Record form. Attribute: Metabolic Stability Study R = rat. Fill in for each entry.
experiment: Metabolic stability in rat liver microsomes; assay type: in vitro ADME
Numbers only, in µL/min/mg.

| compound | result-units | Metabolic Stability Study R = rat |
| --- | --- | --- |
| COc1cc(S(=O)(=O)Cc2ccc3c(c2)C(F)CN(C)C3)ccc1NC(=O)N[C@H](C)c1cccc(Cl)c1Cl (some centres unmarked) | µL/min/mg | 427.2 |
| CN(C)C(C)(C)Cc1ccc(NS(=O)(=O)c2ccc(NC(=O)NCc3cccc(Cl)c3Cl)cc2)cc1 | µL/min/mg | 92.4 |
| COc1cc(S(=O)(=O)Cc2ccc3c(c2)CNC3)ccc1NC(=O)NC(C)c1ccccc1.Cl (centres unmarked) | µL/min/mg | 48.2 |

Moving on to another compound below.
Exam item: Consider the compound shown here: C[C@H](NC(=O)Nc1ccc(S(=O)(=O)Nc2ccc(CC(C)(C)N)cc2)cc1)c1cccc(Cl)c1Cl.Cl What is its recorded Metabolic Stability Study R = rat?
Marked response: 11.7

---

biological target: GHSR-1a (HEK293/GHSR1a cell line) (Homo sapiens, UniProt Q92847); construct: expressed in transfected cells; host or cells: HEK293/GHSR1a cell line; test: Ghrelin antagonist potency (IC50) with calcium FLIPR assay, ghrelin 10 nM; type: cell-based; conditions: ghrelin antagonist potency, read-out: IC50 (Activity)
Sequence (Q92847 whole entry): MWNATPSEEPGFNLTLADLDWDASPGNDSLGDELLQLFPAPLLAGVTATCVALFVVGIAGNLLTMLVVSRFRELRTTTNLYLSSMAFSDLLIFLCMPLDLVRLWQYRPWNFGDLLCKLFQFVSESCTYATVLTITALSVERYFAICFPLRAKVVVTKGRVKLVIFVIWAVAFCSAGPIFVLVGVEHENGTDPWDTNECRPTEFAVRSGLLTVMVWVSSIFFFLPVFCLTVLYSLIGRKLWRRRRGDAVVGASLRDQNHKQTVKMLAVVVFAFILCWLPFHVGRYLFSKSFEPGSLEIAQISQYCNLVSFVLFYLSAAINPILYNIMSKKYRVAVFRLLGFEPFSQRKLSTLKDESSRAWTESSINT
pIC50: −log10 of the molar value.
pIC50 below 6 gives no; pIC50 at or above it gives yes.

Solved cases below.
| molecule | target | class-name |
| --- | --- | --- |
| COc1cccc(CS(=O)(=O)c2ccc(NC(=O)N[C@@H](C)c3cccc(Cl)c3Cl)cc2)c1 [H1082] | GHSR-1a (HEK293/GHSR1a cell line) (Homo sapiens, UniProt Q92847) | no |
| C[C@H](NC(=O)Nc1ccc(S(=O)(=O)Cc2ccc3c(c2)CCNC3)cc1)c1ccccc1 [H1028] | GHSR-1a (HEK293/GHSR1a cell line) (Homo sapiens, UniProt Q92847) | yes |
| C[C@H](NC(=O)Nc1ccc(S(=O)(=O)Nc2ccc(CO)cc2)cc1)c1cccc(Cl)c1Cl [H1062] | GHSR-1a (HEK293/GHSR1a cell line) (Homo sapiens, UniProt Q92847) | yes |

Exam item: Determine whether measured pIC50 meets or exceeds 6 for COC(=O)c1ccc(CS(=O)(=O)c2ccc(NC(=O)N[C@@H](C)c3cccc(Cl)c3Cl)cc2)cc1 [H1058]
Marked response: no

Exam item: Determine whether measured pIC50 meets or exceeds 6 for C[C@H](NC(=O)Nc1ccc(S(=O)(=O)Nc2ccc(CC(C)(C)N)cc2)cc1)c1ccc(-c2cnccn2)c(Cl)c1Cl [H0906]
Marked response: yes

Exam item: Determine whether measured pIC50 meets or exceeds 6 for C[C@H](NC(=O)Nc1ccc(S(=O)(=O)Cc2ccc(CO)cc2)cc1)c1ccccc1 [H1222]
Marked response: no

Exam item: Determine whether measured pIC50 meets or exceeds 6 for CCC(NC(=O)Nc1ccc(S(=O)(=O)Cc2ccc3c(c2)CN(C)C3)cc1)c1ccccc1 (centres unmarked) [H1235]
Marked response: yes

Exam item: Determine whether measured pIC50 meets or exceeds 6 for C[C@H](NC(=O)Nc1ccc(S(=O)(=O)N2CCN(C)CC2)cc1)c1ccccc1 [H1225]
Marked response: no
